Molecular target: Purified CYP3A4 (Homo sapiens, UniProt P08684, S18F)
Settings: human, 20 µM, pH 7.4
Parameter: Soret trough (nm)

O=C(Nc1ccccc1)c1cc(-c2ccncn2)nc2ccccc12 ... 390
CN(C)c1ccc(NC(=O)c2cc(-c3cnccn3)nc3ccccc23)cc1 ... 393
CN(C)c1ccc(NC(=O)c2cc(-c3ccncn3)nc3ccccc23)cc1 ... 392
Cc1ccc(NC(=O)c2cc(-c3cnccn3)nc3ccccc23)cc1 ... 391
O=C(Nc1ccccc1)c1cc(-c2ccncc2)nc2ccccc12 ... 394

###

Molecular target: Purified CYP3A4 (Homo sapiens, UniProt P08684, S18F)
Settings: human, 20 µM, pH 7.4
Parameter: Soret peak (nm)

CN(C)c1ccc(NC(=O)c2cc(-c3ccncn3)nc3ccccc23)cc1 ... 422
CN(C)c1ccc(NC(=O)c2cc(-c3ccccc3)nc3ccccc23)cc1 ... 385
O=C(Nc1ccccc1)c1cc(-c2ccccn2)nc2ccccc12 ... 389
COc1ccc(NC(=O)c2cc(-c3ccncc3)nc3ccccc23)cc1 ... 427
COc1ccc(NC(=O)c2cc(-c3ccccn3)nc3ccccc23)cc1 ... 388
CN(C)c1ccc(NC(=O)c2cc(-c3cnccn3)nc3ccccc23)cc1 ... 425
Cc1ccc(NC(=O)c2cc(-c3ccncc3)nc3ccccc23)cc1 ... 428
O=C(Nc1ccccc1)c1cc(-c2ccncc2)nc2ccccc12 ... 427
Cc1ccc(NC(=O)c2cc(-c3ccncn3)nc3ccccc23)cc1 ... 425
COc1ccc(NC(=O)c2cc(-c3cnccn3)nc3ccccc23)cc1 ... 423

###

Target: Purified CYP3A4 (Homo sapiens, UniProt P08684, S18F)
Conditions: human, 20 µM, pH 7.4
Parameter: Soret trough (nm)

Cc1ccc(NC(=O)c2cc(-c3ccccc3)nc3ccccc23)cc1 [Compound 4] ... 417
CN(C)c1ccc(NC(=O)c2cc(-c3ccncc3)nc3ccccc23)cc1 [Compound 6] ... 392
COc1ccc(NC(=O)c2cc(-c3ccccn3)nc3ccccc23)cc1 [Compound 9] ... 417
Cc1ccc(NC(=O)c2cc(-c3ccncc3)nc3ccccc23)cc1 [Compound 8] ... 392
COc1ccc(NC(=O)c2cc(-c3ccncn3)nc3ccccc23)cc1 [Compound 17] ... 391
CN(C)c1ccc(NC(=O)c2cc(-c3ccccn3)nc3ccccc23)cc1 [Compound 10] ... 416
O=C(Nc1ccccc1)c1cc(-c2ccccn2)nc2ccccc12 [Compound 11] ... 418
Cc1ccc(NC(=O)c2cc(-c3ccncn3)nc3ccccc23)cc1 [Compound 20] ... 390
COc1ccc(NC(=O)c2cc(-c3ccncc3)nc3ccccc23)cc1 [Compound 5] ... 391
O=C(Nc1ccccc1)c1cc(-c2cnccn2)nc2ccccc12 [Compound 15] ... 397
Cc1ccc(NC(=O)c2cc(-c3ccccn3)nc3ccccc23)cc1 [Compound 12] ... 416
O=C(Nc1ccccc1)c1cc(-c2ccccc2)nc2ccccc12 [Compound 3] ... 417
CN(C)c1ccc(NC(=O)c2cc(-c3ccccc3)nc3ccccc23)cc1 [Compound 2] ... 416
COc1ccc(NC(=O)c2cc(-c3cnccn3)nc3ccccc23)cc1 [Compound 13] ... 396

###

Biological target: Purified CYP3A4 (Homo sapiens, UniProt P08684, S18F)
Conditions: human, 20 µM, pH 7.4
Parameter: Soret peak (nm)

CN(C)c1ccc(NC(=O)c2cc(-c3ccncc3)nc3ccccc23)cc1 ... 427
Cc1ccc(NC(=O)c2cc(-c3ccccn3)nc3ccccc23)cc1 ... 391
O=C(Nc1ccccc1)c1cc(-c2ccccc2)nc2ccccc12 ... 392
COc1ccc(NC(=O)c2cc(-c3ccncn3)nc3ccccc23)cc1 ... 425
Cc1ccc(NC(=O)c2cc(-c3ccccc3)nc3ccccc23)cc1 ... 393
Cc1ccc(NC(=O)c2cc(-c3cnccn3)nc3ccccc23)cc1 ... 422
O=C(Nc1ccccc1)c1cc(-c2ccncn2)nc2ccccc12 ... 424
CN(C)c1ccc(NC(=O)c2cc(-c3ccccn3)nc3ccccc23)cc1 ... 386
O=C(Nc1ccccc1)c1cc(-c2cnccn2)nc2ccccc12 ... 427

###

Values of Binding mode reported for Purified CYP3A4 (Homo sapiens, UniProt P08684, S18F) appear below.

Illustrative cases are given below, each with its answer.
CN(C)c1ccc(NC(=O)c2cc(-c3ccccn3)nc3ccccc23)cc1 ... Type I
Cc1ccc(NC(=O)c2cc(-c3ccncn3)nc3ccccc23)cc1 ... Type II
Cc1ccc(NC(=O)c2cc(-c3cnccn3)nc3ccccc23)cc1 ... Type II
O=C(Nc1ccccc1)c1cc(-c2ccccc2)nc2ccccc12 ... Type I
O=C(Nc1ccccc1)c1cc(-c2cnccn2)nc2ccccc12 ... Type II
CN(C)c1ccc(NC(=O)c2cc(-c3ccccc3)nc3ccccc23)cc1 ... Type I

Item O=C(Nc1ccccc1)c1cc(-c2ccccn2)nc2ccccc12 was tested on Purified CYP3A4 (Homo sapiens, UniProt P08684, S18F); the reported Binding mode is Type I

Item Cc1ccc(NC(=O)c2cc(-c3ccccc3)nc3ccccc23)cc1 was tested on Purified CYP3A4 (Homo sapiens, UniProt P08684, S18F); the reported Binding mode is Type I

###

Biological target: Purified CYP3A4 (Homo sapiens, UniProt P08684, S18F)
Parameter: Binding mode

Illustrative cases are given below, each with its answer.
COc1ccc(NC(=O)c2cc(-c3ccncn3)nc3ccccc23)cc1 [Compound 17] ... Type II
CN(C)c1ccc(NC(=O)c2cc(-c3cnccn3)nc3ccccc23)cc1 [Compound 14] ... Type II
COc1ccc(NC(=O)c2cc(-c3ccncc3)nc3ccccc23)cc1 [Compound 5] ... Type II
O=C(Nc1ccccc1)c1cc(-c2ccncn2)nc2ccccc12 [Compound 19] ... Type II
Cc1ccc(NC(=O)c2cc(-c3ccccn3)nc3ccccc23)cc1 [Compound 12] ... Type I
CN(C)c1ccc(NC(=O)c2cc(-c3ccncn3)nc3ccccc23)cc1 [Compound 18] ... Type II
COc1ccc(NC(=O)c2cc(-c3ccccn3)nc3ccccc23)cc1 [Compound 9] ... Type I
Cc1ccc(NC(=O)c2cc(-c3ccncc3)nc3ccccc23)cc1 [Compound 8] ... Type II

Item O=C(Nc1ccccc1)c1cc(-c2ccncc2)nc2ccccc12 [Compound 7] was tested on Purified CYP3A4 (Homo sapiens, UniProt P08684, S18F); the reported Binding mode is Type II

Item COc1ccc(NC(=O)c2cc(-c3cnccn3)nc3ccccc23)cc1 [Compound 13] was tested on Purified CYP3A4 (Homo sapiens, UniProt P08684, S18F); the reported Binding mode is Type II
